Tested on: sorbitol oxidase
Assay: Sorbitol oxidase activity determined by H2O2 produced, with various monosaccharides and derivatives as substrate
Format: biochemical, Xanthomonas maltophilia TE3539
Set-up: concentration or dose not given beside the values
Conditions: substrate specificity; enzyme activity with respect to D-sorbitol set at 100
Metric: Relative activity (%)

>>> print(df.to_string())
                                   compound                 metric  endpoint_result
0                       OCC(O)CO [Glycerol]  Relative activity (%)             3.50
1  Cl.N[C@H]1C(O)O[C@H](CO)[C@@H](O)[C@@H]1O (stereo partly drawn) [D-glucosamine hydrochloride]  Relative activity (%)             0.00
2  O=C[C@H](O)[C@@H](O)[C@@H](O)[C@H](O)CO [D-galactose]  Relative activity (%)             0.42
3  O=C(CO)[C@@H](O)[C@H](O)[C@@H](O)CO [L-sorbose]  Relative activity (%)            10.60
4  O[C@H]1[C@H](O)[C@@H](O)[C@H](O)[C@@H](O)[C@H]1O [Inositol]  Relative activity (%)             0.40
5    OC[C@@H](O)C(O)[C@H](O)CO [D-arabitol]  Relative activity (%)            23.20
6  OC[C@@H](O)[C@@H](O)[C@H](O)[C@@H](O)CO [D-sorbitol]  Relative activity (%)           100.00
7  OC[C@H]1O[C@H](O[C@H]2[C@H](O)[C@@H](O)C(O)O[C@@H]2CO)[C@H](O)[C@@H](O)[C@@H]1O (mixture of isomers) [Maltose]  Relative activity (%)             0.00
8  OC[C@@H](O)[C@@H](O)[C@H](O)[C@H](O)CO [D-mannitol]  Relative activity (%)            86.60

###

Test system: sorbitol oxidase
Experiment: Sorbitol oxidase activity determined by H2O2 produced, with various monosaccharides and derivatives as substrate
Type: biochemical, Xanthomonas maltophilia TE3539
Design: concentration or dose not given beside the values
Details: substrate specificity; enzyme activity with respect to D-sorbitol set at 100
Each item that follows carries a reported Relative activity (%).
Metric: Relative activity (%)

                               smiles_code  endpoint_result
0  O=C[C@@H](O)[C@@H](O)[C@H](O)[C@H](O)CO             1.01
1           OC[C@@H](O)[C@H](O)[C@@H](O)CO            89.90
2   O=C[C@H](O)[C@@H](O)[C@H](O)[C@H](O)CO             0.54
3       O=C(CO)[C@@H](O)[C@H](O)[C@H](O)CO             2.88
